# target_desc: Aβ1–40 (Homo sapiens)
# Construct: diluting Aβ1–40 (EZBiolab, Carmel, IN, USA); purchased EZBiolab, Carmel, IN, USA
# Sequence (P05067 672-711): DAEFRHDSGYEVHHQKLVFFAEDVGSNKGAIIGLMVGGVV
# experiment: Inhibition of Aβ1–40 aggregation (ThT fluorescence)
# Format: biochemical
# protocol_conditions: iAβ IC50 (μM ± SEM), Aβ1–40 30 μM, 2 h at 25 °C, ThT fluorescence
assay_endpoint: IC50

Q: State its IC50 for this molecule: CC[C@H](C)[C@@H]1NC(=O)C(C(C)=O)=C1O
Result: ~100 µM

---

# target_desc: AChE from electric eel (Electrophorus electricus)
# Construct: purchased Sigma-Aldrich, Milan, Italy
# Sequence (O42275 24-633): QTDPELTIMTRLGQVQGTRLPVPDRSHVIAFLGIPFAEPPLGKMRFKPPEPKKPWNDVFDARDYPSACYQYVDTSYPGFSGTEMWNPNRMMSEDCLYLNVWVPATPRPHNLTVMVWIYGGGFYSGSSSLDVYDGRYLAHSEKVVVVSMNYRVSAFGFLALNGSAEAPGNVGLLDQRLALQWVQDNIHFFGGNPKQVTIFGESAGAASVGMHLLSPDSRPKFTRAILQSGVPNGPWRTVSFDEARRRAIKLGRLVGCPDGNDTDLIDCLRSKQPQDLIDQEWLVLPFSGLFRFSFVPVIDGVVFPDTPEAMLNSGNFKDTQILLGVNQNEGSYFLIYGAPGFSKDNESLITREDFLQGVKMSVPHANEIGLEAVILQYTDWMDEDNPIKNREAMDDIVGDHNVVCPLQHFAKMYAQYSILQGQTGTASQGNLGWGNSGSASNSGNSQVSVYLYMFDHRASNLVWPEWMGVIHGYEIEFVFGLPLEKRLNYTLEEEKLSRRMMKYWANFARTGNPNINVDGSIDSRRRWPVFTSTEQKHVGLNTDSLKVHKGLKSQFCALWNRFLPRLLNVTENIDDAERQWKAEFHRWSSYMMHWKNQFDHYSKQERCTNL
# experiment: biochemical
# protocol_conditions: acetylcholinesterase from electric eel; mean ± SEM; read-out: eeAChEi IC50 (μM ± SEM)
assay_endpoint: IC50 (µM)
# unit: µM | format: bare number

Q: State its IC50 for this compound: C/C=C/c1cc2c(c(=O)o1)[C@@H](O)[C@@H](O)[C@H](C)O2 [Compound 2, 2-epi-Radicinol]
Result: 6.86

Q: State its IC50 for this compound: COC(=O)/C=C/c1ncn(C)c1CC=C(C)C [Compound 6, Fungerin]
Result: 86

Q: State its IC50 for this compound: C/C=C/c1cc2c(c(=O)o1)C(=O)[C@@H](O)[C@H](C)O2 [Compound 5, Radicinin]
Result: 8.96

Q: State its IC50 for this compound: Oc1c(I)cc(Cl)c2cccnc12 [Clioquinol, reference compound]
Result: 8.12

Q: State its IC50 for this compound: COc1cc(O)c2c(c1)C[C@@H](C)OC2=O [Compound 4, 6-Methoxymellein]
Result: 11.4

Q: State its IC50 for this compound: COc1c(C)c2c(c(O)c1C/C=C(\C)CCC(=O)O)C(=O)OC2 [Compound 3, Mycophenolic acid]
Result: 7.84

---

# target_desc: AChE from electric eel (Electrophorus electricus)
# Construct: purchased Sigma-Aldrich, Milan, Italy
# experiment: biochemical
assay_endpoint: IC50 (µM)
# unit: µM | format: bare number

Q: State its IC50 for this compound: CC[C@H](C)[C@@H]1NC(=O)C(C(C)=O)=C1O
Result: 8.13

---

# target_desc: Aβ1–40 (Homo sapiens)
# Construct: diluting Aβ1–40 (EZBiolab, Carmel, IN, USA); purchased EZBiolab, Carmel, IN, USA
# experiment: Inhibition of Aβ1–40 aggregation (ThT fluorescence)
# Type: biochemical
# protocol_conditions: Aβ1–40 30 μM, 2 h at 25 °C, ThT fluorescence; read-out: iAβ IC50 (μM ± SEM)
Provide the recorded IC50 for the entries that follow.
Dear colleague, please send the value followed by its unit.

Q: State its IC50 for this compound: Oc1c(I)cc(Cl)c2cccnc12 [Clioquinol, reference compound]
Result: 7.6 µM

Q: State its IC50 for this compound: C/C=C/c1cc2c(c(=O)o1)[C@@H](O)[C@@H](O)[C@H](C)O2 [Compound 2, 2-epi-Radicinol]
Result: 74 µM

Q: State its IC50 for this compound: O=c1c(O)c(-c2ccc(O)c(O)c2)oc2cc(O)cc(O)c12 [Quercetin, reference compound]
Result: 0.82 µM

Q: State its IC50 for this compound: COc1cc(O)c2c(c1)C[C@@H](C)OC2=O
Result: 98 µM

Value source: paper PMC6225478
